target: UniProt:P29990; experiment: biochemical; format: binding, dengue virus type 2 (strain 16681); details: read-out: FP_DEN_Ki_AVG_DEN_M
Sequence (P29990 2492-2758): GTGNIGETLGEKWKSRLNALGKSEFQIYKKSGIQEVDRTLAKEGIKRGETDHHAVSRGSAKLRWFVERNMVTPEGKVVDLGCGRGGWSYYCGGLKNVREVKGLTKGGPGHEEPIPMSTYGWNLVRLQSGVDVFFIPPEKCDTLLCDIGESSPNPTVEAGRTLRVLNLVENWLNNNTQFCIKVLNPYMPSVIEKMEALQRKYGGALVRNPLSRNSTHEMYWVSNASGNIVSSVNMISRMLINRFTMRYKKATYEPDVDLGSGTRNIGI
pKi: −log10 of the molar value.
Classification field: rule met = pKi at or over 5; rule not met = pKi under 5.

{"structureString": "O=C(O)CCN1C(=O)/C(=C/c2ccc(-c3ccccc3Cl)o2)SC1=S", "labelClass": "rule not met"}
{"structureString": "O=C(O)CCN1C(=O)C(=Cc2ccc(-c3ccc(Br)cc3)o2)SC1=S", "labelClass": "rule not met"}
{"structureString": "O=C(CCN1C(=O)C(=Cc2ccc(Cl)cc2)SC1=S)Nc1ccc(C(=O)O)cc1", "labelClass": "rule met"}
{"structureString": "CCOc1cc(/C=C2\\SC(=S)NC2=O)ccc1OS(=O)(=O)c1ccccc1[N+](=O)[O-]", "labelClass": "rule met"}
{"structureString": "O=C(CCN1C(=O)C(=Cc2ccc(Cl)cc2)SC1=S)Nc1cccc(C(=O)O)c1", "labelClass": "rule met"}
{"structureString": "COc1ccc(OC)c(/C=C2\\SC(=S)N(CC(=O)O)C2=O)c1", "labelClass": "rule not met"}
{"structureString": "Cc1cccc(/C=C2\\SC(=S)N(CN3CCCCC3)C2=O)c1", "labelClass": "rule not met"}
{"structureString": "O=C1NC(=O)C(=Cc2ccccc2[N+](=O)[O-])S1", "labelClass": "rule not met"}
{"structureString": "NC(=O)c1c(NC(=O)CN2C(=O)C(=Cc3ccc(Cl)cc3Cl)SC2=S)sc2c1CCCC2", "labelClass": "rule not met"}
{"structureString": "COc1cc(/C=C2\\SC(=O)N(Cc3ccc(F)cc3)C2=O)c(Br)cc1OCC(=O)O", "labelClass": "rule met"}
